# credit: paper PMC4466236

- TARGET UNDER TEST: MvaT (Pseudomonas aeruginosa PAO1) (UniProt Q9HW86)
- Sequence: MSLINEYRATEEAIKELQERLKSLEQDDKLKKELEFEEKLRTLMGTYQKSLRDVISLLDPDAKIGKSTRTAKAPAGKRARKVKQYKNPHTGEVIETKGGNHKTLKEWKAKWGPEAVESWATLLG
RESULT TYPE: binding signal (PBM E-score (-0.5 to 0.5))
// return just the number, without any unit appended

Ask | Form field: binding signal (PBM E-score (-0.5 to 0.5)) recorded for TATATATA (double strand) [8-mer TATATATA] with MvaT (Pseudomonas aeruginosa PAO1) (UniProt Q9HW86) (enter value)
Reply | 0.493

Ask | Form field: binding signal (PBM E-score (-0.5 to 0.5)) recorded for ATATTAAT (double strand) [8-mer ATATTAAT] with MvaT (Pseudomonas aeruginosa PAO1) (UniProt Q9HW86) (enter value)
Reply | 0.484

Ask | Form field: binding signal (PBM E-score (-0.5 to 0.5)) recorded for AATATATA (double strand) [8-mer AATATATA] with MvaT (Pseudomonas aeruginosa PAO1) (UniProt Q9HW86) (enter value)
Reply | 0.486

Ask | Form field: binding signal (PBM E-score (-0.5 to 0.5)) recorded for AATATATT (double strand) [8-mer AATATATT] with MvaT (Pseudomonas aeruginosa PAO1) (UniProt Q9HW86) (enter value)
Reply | 0.485

Ask | Form field: binding signal (PBM E-score (-0.5 to 0.5)) recorded for TTATATAA (double strand) [8-mer TTATATAA] with MvaT (Pseudomonas aeruginosa PAO1) (UniProt Q9HW86) (enter value)
Reply | 0.483

Ask | Form field: binding signal (PBM E-score (-0.5 to 0.5)) recorded for TATATTAA (double strand) [8-mer TATATTAA] with MvaT (Pseudomonas aeruginosa PAO1) (UniProt Q9HW86) (enter value)
Reply | 0.482

Ask | Form field: binding signal (PBM E-score (-0.5 to 0.5)) recorded for TTAATTAA (double strand) [8-mer TTAATTAA] with MvaT (Pseudomonas aeruginosa PAO1) (UniProt Q9HW86) (enter value)
Reply | 0.481

Ask | Form field: binding signal (PBM E-score (-0.5 to 0.5)) recorded for AATATTAA (double strand) [8-mer AATATTAA] with MvaT (Pseudomonas aeruginosa PAO1) (UniProt Q9HW86) (enter value)
Reply | 0.478

Ask | Form field: binding signal (PBM E-score (-0.5 to 0.5)) recorded for TATTAATA (double strand) [8-mer TATTAATA] with MvaT (Pseudomonas aeruginosa PAO1) (UniProt Q9HW86) (enter value)
Reply | 0.481

Ask | Form field: binding signal (PBM E-score (-0.5 to 0.5)) recorded for ATATAATA (double strand) [8-mer ATATAATA] with MvaT (Pseudomonas aeruginosa PAO1) (UniProt Q9HW86) (enter value)
Reply | 0.484

Ask | Form field: binding signal (PBM E-score (-0.5 to 0.5)) recorded for AAATATAT (double strand) [8-mer AAATATAT] with MvaT (Pseudomonas aeruginosa PAO1) (UniProt Q9HW86) (enter value)
Reply | 0.482

Ask | Form field: binding signal (PBM E-score (-0.5 to 0.5)) recorded for ATATATTA (double strand) [8-mer ATATATTA] with MvaT (Pseudomonas aeruginosa PAO1) (UniProt Q9HW86) (enter value)
Reply | 0.489

Ask | Form field: binding signal (PBM E-score (-0.5 to 0.5)) recorded for TATTATAA (double strand) [8-mer TATTATAA] with MvaT (Pseudomonas aeruginosa PAO1) (UniProt Q9HW86) (enter value)
Reply | 0.48

Ask | Form field: binding signal (PBM E-score (-0.5 to 0.5)) recorded for ATATATAA (double strand) [8-mer ATATATAA] with MvaT (Pseudomonas aeruginosa PAO1) (UniProt Q9HW86) (enter value)
Reply | 0.487

Ask | Form field: binding signal (PBM E-score (-0.5 to 0.5)) recorded for ATATATAT (double strand) [8-mer ATATATAT] with MvaT (Pseudomonas aeruginosa PAO1) (UniProt Q9HW86) (enter value)
Reply | 0.491
